molecular target: CXCL8 receptors on bovine peripheral blood neutrophils; test: competition with 20 pM 125I-CXCL8 on 10^6 bovine neutrophils, 45 min on ice
MEASUREMENT_NAME: pIC50
pIC50 here is simply -log10 of the concentration when that concentration is written in mol/L.

For the binder shown here, bovine CXCL8(3-74)K11R/G31P (ligand) TELRCQCIRTHSTPFHPKFIKELRVIESPPHCENSEIIVKLTNGNEVCLNPKEKWVQKVVQVFVKRAEKQDP , give the reported pIC50. 11.40
